experiment description: qHTS RealTime-Glo MT Cell Viability Assay in HEK293 cells - 32 hour (AID 1224868); note: top concentration of the series differs between compounds; % is set by controls: 0 for no effect and ±100 for the full control effect; nearly all actives have a fitted effect of over 50% in size
test parameters: RealTime-Glo luminescence; series mostly up to 76.8 µM
Inconclusive results are not listed. Activity calls are given as the source filed them. Calls come from the whole dose curve; as a rule, active = well fitted cell-killing curve with a large enough effect in the repeat runs; inconclusive = weak or mixed curves, or effect the other way; inactive = flat fitted curve, though single readings scatter.
Entry note: the call must match one of true (active), false (inactive)

{"compound": "COc1cc(Cl)ccc1Oc1ccc(Cl)cc1Cl", "assigned class": "false"}
{"compound": "CCC(CC)Nc1ccc(C)c(C)c1", "assigned class": "false"}
{"compound": "O=C(O)C1(C(=O)O)CCC1.[NH2-].[NH2-].[Pt+2]", "assigned class": "false"}
{"compound": "CCO[Si](CCCCl)(OCC)OCC", "assigned class": "false"}

Please examine the following record next.
## Input Assay result, entry C[C@@H](c1ncncc1F)C(O)(Cn1cncn1)c1ccc(F)cc1F (stereo partly specified) — outcome?
## Output false

====

experiment description: qHTS assay for small molecule agonists of the antioxidant response element (ARE) signaling pathway - cell viability counter screen (AID 743203); note: nearly all actives have a fitted effect of over 55% in size
test parameters: ARE-bla HepG2 viability, CellTiter-Glo luminescence, 16 h; series mostly up to 73.3 µM
Results filed as inconclusive are left out. Calls of active or inactive are those of the source. Calls follow the shape of the full dose curve.
// allowed return values: active, inactive

Past entries and their recorded results:
{"compound": "O=C(O)C1(C(=O)O)CCC1.[NH2-].[NH2-].[Pt+2]", "assigned class": "inactive"}
{"compound": "CCCCCCCCCCCCN1CCCCCC1=O", "assigned class": "inactive"}
{"compound": "CCCCCCOC(=O)NC(=N)c1ccc(NCc2nc3cc(C(=O)N(CCC(=O)OCC)c4ccccn4)ccc3n2C)cc1", "assigned class": "active"}
{"compound": "c1ccc(-c2ccccn2)nc1", "assigned class": "inactive"}
{"compound": "O=C(O)c1ccc(-n2nc(-c3ccccc3O)nc2-c2ccccc2O)cc1", "assigned class": "inactive"}

## Input Any idea what this test logged for CN(C)CCOC(c1ccccc1)c1ccc(Br)cc1 (stereo unspecified) ?
## Output inactive

====

subject of test: Nuclear receptor subfamily 1 group I member 2 (Homo sapiens) (UniProt O75469)
Sequence (O75469 whole entry, looked up): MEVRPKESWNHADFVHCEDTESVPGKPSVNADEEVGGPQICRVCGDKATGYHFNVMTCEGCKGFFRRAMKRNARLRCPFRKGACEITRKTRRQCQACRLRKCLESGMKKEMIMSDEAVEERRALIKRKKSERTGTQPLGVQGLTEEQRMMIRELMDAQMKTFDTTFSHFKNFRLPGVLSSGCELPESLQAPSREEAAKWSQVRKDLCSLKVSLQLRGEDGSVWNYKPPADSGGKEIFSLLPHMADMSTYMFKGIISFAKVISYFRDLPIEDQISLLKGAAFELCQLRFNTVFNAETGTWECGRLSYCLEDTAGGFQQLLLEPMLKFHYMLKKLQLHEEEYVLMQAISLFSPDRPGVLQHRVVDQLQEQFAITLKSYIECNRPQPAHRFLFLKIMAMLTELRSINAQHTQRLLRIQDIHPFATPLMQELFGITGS
experiment description: Human pregnane X receptor (PXR) small molecule agonists, qHTS assay (AID 1346982); note: nearly all actives have a fitted effect of over 35% in size; for activation: % is set by controls: 0 for no effect and ±100 for the full control effect
test parameters: PXR-Luc HepG2, CYP3A4 luciferase reporter, 24 h; series mostly up to 92.4 µM
Records with an inconclusive call do not appear. The source made the active and inactive calls. Calls follow the shape of the dose curve; as a rule, active = well fitted activation curve with a large enough effect in the repeat runs; inconclusive = weak or mixed curves; inactive = no such curve, though single readings can be large or run the other way.
Hi there, use one of these labels in your reply, thanks! active, inactive

{"query smiles": "CN1CCN(C(c2ccccc2)c2ccccc2)CC1", "assigned class": "inactive"}

## Input State the result this test recorded for `c1cc(CCCc2ccncc2)ccn1` .
## Output active

## Input Tell me the assay call for `C=C(C)C(=O)OCCOCC` please.
## Output inactive

## Input What was the test verdict on `COc1cc(C(=O)OCCCN2CCCN(CCCOC(=O)c3cc(OC)c(OC)c(OC)c3)CC2)cc(OC)c1OC` ?
## Output active

## Input Assay outcome for `COc1ccc(C(=O)Nc2nc3ccccc3c(NCc3ccccc3)c2C#N)cc1` : what was it?
## Output active

## Input Which result was noted for this compound in the test: `C[Si](C)(CCCN)O[Si](C)(C)CCCN`
## Output inactive

====

experiment description: qHTS assay for small molecules that induce genotoxicity in human embryonic kidney cells expressing luciferase-tagged ATAD5 (AID 651632); note: % is set by controls: 0 for no effect and ±100 for the full control effect; nearly all actives have a fitted effect of over 15% in size
test parameters: HEK293T ATAD5-luciferase induction, 16 h; series mostly up to 83.3 µM
Records with an inconclusive call do not appear. Active and inactive are the calls of the source. Calls follow the shape of the dose curve; as a rule, active = well fitted activation curve with a large enough effect in the repeat runs; inconclusive = weak or mixed curves; inactive = no such curve, though single readings can be large or run the other way.
experimental readout: outcome

{"compound": "CN(C)C(=O)NC1(c2ccccc2)CCN(CC[C@@]2(c3ccc(F)c(F)c3)CN(C(=O)c3ccccc3)CCO2)CC1", "outcome": "inactive"}
{"compound": "CC(C)C[C@H]1C(=O)N2CCC[C@H]2[C@]2(O)O[C@](NC(=O)[C@@H]3C=C4c5cccc6[nH]c(Br)c(c56)C[C@H]4N(C)C3)(C(C)C)C(=O)N12", "outcome": "inactive"}
{"compound": "CN(Cc1ccc(C(C)(C)C)cc1)Cc1cccc2ccccc12", "outcome": "inactive"}
{"compound": "O=C(O)c1ccc(-n2nc(-c3ccccc3O)nc2-c2ccccc2O)cc1", "outcome": "inactive"}

Please supply outcome for each of the following items, keeping them in order.
1. Nc1cccc(S(=O)(=O)c2cccc(N)c2)c1
2. O=S(=O)(Oc1ccc(Cl)cc1)c1ccccc1
3. CCCCCCc1ccc(-c2ccc(C#N)cc2)cc1
4. Nc1ccc(N)c2c1C(=O)c1ccccc1C2=O

## Output
1: inactive; 2: inactive; 3: inactive; 4: inactive

I would be grateful if you could provide outcome for each of the following entries.
1. O=C1OC(CN2CCOCC2)CN1/N=C/c1ccc([N+](=O)[O-])o1 (centres undefined)
2. C/C(=C(\CCOP(=O)(O)O)SC(=O)c1ccccc1)N(C=O)Cc1cnc(C)nc1N
3. Clc1ccc(Cn2c(CN3CCCC3)nc3ccccc32)cc1
4. O=C(CS)Nc1ccccc1
5. CCCCCCCC/C=C\CCCCCCCC(=O)OCC
6. CC[N+]1(CC)CCC(=C(c2ccccc2)c2ccccc2)C1C (centres undefined)

## Output
1: inactive; 2: inactive; 3: inactive; 4: inactive; 5: inactive; 6: inactive

For each listed entry, give its outcome.
1. CC1=CCCC(C)(C)C12CCC(C)O2 (centres undefined)
2. C[N+]1(C)CCC(OC(=O)C(O)(c2ccccc2)C2CCCC2)C1 (centres undefined)
3. NCCCN1CCOCC1
4. CCCCOC(=O)CCCCCCCC(=O)OCCCC
5. O=C1CCCCCCCCCCCC(=O)OCCO1

## Output
inactive
inactive
inactive
inactive
inactive

State recorded outcome for all listed compounds.
1. C[C@H](CCC(=O)O)[C@H]1CC[C@H]2[C@@H]3CC[C@@H]4C[C@H](O)CC[C@]4(C)[C@H]3C[C@H](O)[C@]12C
2. Brc1c2ccccc2cc2ccccc12
3. CCCCCCCCCc1ccc(OCCOCCO)cc1

## Output
1: inactive; 2: inactive; 3: inactive

For every item below, please supply its outcome.
1. O=C(c1ccc(F)cc1)C1CCN(CCn2c(=S)[nH]c3ccccc3c2=O)CC1
2. CC(COCCO)OCCO (centres undefined)

## Output
1: inactive; 2: inactive

====

experiment description: qHTS assay to identify small molecule antagonists of the androgen receptor (AR) signaling pathway using the MDA cell line in the presence of 0.5 nM R1881 - cell viability counter screen (AID 1259242); note: potency is the fitted concentration of half-maximal effect; nearly all actives have a fitted effect of over 45% in size
test parameters: MDA-kb2 viability, CellTiter-Fluor protease fluorescence, 16 h; series mostly up to 92.4 µM
Inconclusive results are not listed. Activity calls are given as the source filed them. Calls follow the shape of the dose curve; as a rule, active = well fitted cell-killing curve with a large enough effect in the repeat runs; inconclusive = weak or mixed curves, or effect the other way; inactive = flat fitted curve, though single readings scatter.
Kindly supply the reported Potency values for the records listed here.

Example results:
{"query smiles": "Cc1ccc(N=Nc2c(O)c(C(=O)O)cc3ccccc23)c(S(=O)(=O)O)c1", "Potency": "11.8 µM (active)"}
{"query smiles": "CCCCCCCCCc1ccc(OCCOCCO)cc1", "Potency": "5.74 µM (active)"}
{"query smiles": "CCCCCCOC(=O)NC(=N)c1ccc(NCc2nc3cc(C(=O)N(CCC(=O)OCC)c4ccccn4)ccc3n2C)cc1", "Potency": "26.6 µM (active)"}

## Input Potency lookup needed for `CCN(CC)c1ccc2c(-c3ccccc3C(=O)O)c3ccc(=[N+](CC)CC)cc-3oc2c1` , thanks.
## Output 10.9 µM (active)

====

Record form. Attribute: viability change, negative = cytotoxic. Fill in for each entry.
experiment description: qHTS assay to identify small molecule antagonists of the sonic hedgehog signaling (Shh) pathway - cell viability counter screen (AID 1259367); note: nearly all actives have a fitted effect of over 55% in size; for viability change, negative = cytotoxic: % is set by controls: 0 for no effect and ±100 for the full control effect
test parameters: NIH/3T3 Gli1-Luc viability, CellTiter-Fluor, 24 h; series mostly up to 92.4 µM
Records with an inconclusive call do not appear. Active and inactive are the calls of the source. Calls come from the whole dose curve; as a rule, active = well fitted cell-killing curve with a large enough effect in the repeat runs; inconclusive = weak or mixed curves, or effect the other way; inactive = no such curve, though single readings can be large or run the other way.

{"compound": "CC(CSC(=O)c1ccccc1)C(=O)N1C[C@@H](Sc2ccccc2)C[C@H]1C(=O)O (some centres undefined)", "viability change, negative = cytotoxic": "1.29% [at 19 µM] (inactive)"}
{"compound": "NCC(=O)O", "viability change, negative = cytotoxic": "1.33% [at 19 µM] (inactive)"}
{"compound": "NC(N)=NCCC[C@H](N)C(=O)O", "viability change, negative = cytotoxic": "1.21% [at 8.39 µM] (inactive)"}

Next:
## Input Any idea what viability change, negative = cytotoxic was measured for `C/C(=C(\CCOP(=O)(O)O)SC(=O)c1ccccc1)N(C=O)Cc1cnc(C)nc1N` ?
## Output 0.0493% [at 8.39 µM] (inactive)

====

experiment description: qHTS assay to identify small molecule antagonists of the sonic hedgehog signaling (Shh) pathway - cell viability counter screen (AID 1259367); note: nearly all actives have a fitted effect of over 55% in size
test parameters: NIH/3T3 Gli1-Luc viability, CellTiter-Fluor, 24 h; series mostly up to 92.4 µM
Results filed as inconclusive are left out. Activity calls are given as the source filed them. The call rests on the fitted dose curve; in most records, active means well fitted cell-killing curve with a large enough effect in the repeat runs; inconclusive means weak or mixed curves, or effect the other way; inactive means no such curve, though single readings can be large or run the other way.
Your answer must be one of the following: 1 (active), 0 (inactive)

Recorded results for 6 compounds are shown here.
{"compound": "COc1ccc2cccc(CCNC(C)=O)c2c1", "assigned class": 0}
{"compound": "CCCCC(CC)COC(=O)COc1ccc(Cl)cc1Cl (configuration not stated)", "assigned class": 0}
{"compound": "CCn1cc(C(=O)O)c(=O)c2cnc(N3CCNCC3)nc21", "assigned class": 0}
{"compound": "Nc1ccc(S(=O)(=O)Nc2ccccc2)cc1", "assigned class": 0}
{"compound": "CC(C)(CO)[N+](=O)[O-]", "assigned class": 0}
{"compound": "CC(=O)NO", "assigned class": 0}

## Input How did this test come out for `CCN(CC)CCNc1ccc(CNC=O)c2sc3ccc(OC)cc3c(=O)c12` ?
## Output 0

## Input What is the recorded call for this compound in the test? `COc1cccc(N(C)C(=S)Oc2ccc3c(c2)CCCC3)n1`
## Output 0

## Input Each compound tested received a call. Report the one for `O=C(Cl)c1cc(C(=O)Cl)cc(C(=O)Cl)c1` .
## Output 0

## Input What did this assay record as the result for CCC(C)c1cc(C(C)(C)C)c(O)c(C(C)(C)C)c1 (configuration not stated) ?
## Output 0

## Input Call for entry `NC(=O)C(c1ccccc1)(c1ccccc1)[C@@H]1CCN(CCc2ccc3c(c2)CCO3)C1` :
## Output 0

## Input Returns: the outcome recorded for `COc1cc(C(=O)OCCCN2CCCN(CCCOC(=O)c3cc(OC)c(OC)c(OC)c3)CC2)cc(OC)c1OC` in this assay.
## Output 1
